# System: KRAS protein containing G12D mutation (Homo sapiens (Human), UniProt P01116, G12D)
# Sequence (P01116 other isoform, or with tags, fused parts or gaps G12D (already in the parent)): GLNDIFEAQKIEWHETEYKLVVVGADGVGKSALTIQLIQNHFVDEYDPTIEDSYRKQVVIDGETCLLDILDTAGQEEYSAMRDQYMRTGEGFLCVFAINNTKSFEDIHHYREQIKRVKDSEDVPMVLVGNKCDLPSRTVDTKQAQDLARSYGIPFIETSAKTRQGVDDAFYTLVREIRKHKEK
# Experiment summary: SOS-catalyzed nucleotide exchange assay (GNE), TR-FRET
# Assay type: biochemical
# Condition summary: biotinylated KRAS G12D, SOS and GTP, 60-minute incubation
Please respond with Criterion met when measured IC50 is strictly beneath 600 nM, and with Criterion not met in all other cases.

Is 600 nM strictly greater than the compound's reported IC50? compound: CN(C)CC1(COc2nc(N3CC4NC(C3)C3CC43)c3cc(Cl)c(-c4cc(O)cc5ccccc45)c(F)c3n2)CC1 (stereo not drawn) Criterion not met

Okay, and Cc1nc2[nH]nc(C)c2c(-c2c(F)cc3c(N4C[C@H]5CC[C@@H](C4)N5)nc(OC[C@@]45CCCN4C[C@H](F)C5)nc3c2F)c1C(F)(F)F (single isomer, unassigned) [250a] ? Criterion met

Here is the next compound: "C[C@]12CC[C@H](CN(c3nc(OC[C@@]45CCCN4C[C@H](F)C5)nc4c(F)c(-c5cc(O)cc6cccc(C7CC7)c56)c(F)cc34)C1)N2" Criterion met

Further, for "CN(C)C[C@@]1(COc2nc(N3C[C@H]4CC[C@@](C)(C3)N4)c3cc(F)c(-c4cc(O)cc5ccccc45)c(F)c3n2)CC1(F)F" ? Criterion met

What do you have for C[C@]12CCC(CN(c3nc(OCC45CCCN4CC(C(F)F)C5)nc4c(F)c(-c5cc(O)cc6cccc(Cl)c56)c(F)cc34)C1)N2 (single isomer, unassigned) [Ex. 173-2b] ? Criterion not met
